Each recorded value in this set is attributed to ChEMBL document CHEMBL2424622.

# EXPERIMENTAL SYSTEM: Dual specificity protein kinase TTK (Homo sapiens, UniProt P33981)
# Sequence (P33981 whole entry): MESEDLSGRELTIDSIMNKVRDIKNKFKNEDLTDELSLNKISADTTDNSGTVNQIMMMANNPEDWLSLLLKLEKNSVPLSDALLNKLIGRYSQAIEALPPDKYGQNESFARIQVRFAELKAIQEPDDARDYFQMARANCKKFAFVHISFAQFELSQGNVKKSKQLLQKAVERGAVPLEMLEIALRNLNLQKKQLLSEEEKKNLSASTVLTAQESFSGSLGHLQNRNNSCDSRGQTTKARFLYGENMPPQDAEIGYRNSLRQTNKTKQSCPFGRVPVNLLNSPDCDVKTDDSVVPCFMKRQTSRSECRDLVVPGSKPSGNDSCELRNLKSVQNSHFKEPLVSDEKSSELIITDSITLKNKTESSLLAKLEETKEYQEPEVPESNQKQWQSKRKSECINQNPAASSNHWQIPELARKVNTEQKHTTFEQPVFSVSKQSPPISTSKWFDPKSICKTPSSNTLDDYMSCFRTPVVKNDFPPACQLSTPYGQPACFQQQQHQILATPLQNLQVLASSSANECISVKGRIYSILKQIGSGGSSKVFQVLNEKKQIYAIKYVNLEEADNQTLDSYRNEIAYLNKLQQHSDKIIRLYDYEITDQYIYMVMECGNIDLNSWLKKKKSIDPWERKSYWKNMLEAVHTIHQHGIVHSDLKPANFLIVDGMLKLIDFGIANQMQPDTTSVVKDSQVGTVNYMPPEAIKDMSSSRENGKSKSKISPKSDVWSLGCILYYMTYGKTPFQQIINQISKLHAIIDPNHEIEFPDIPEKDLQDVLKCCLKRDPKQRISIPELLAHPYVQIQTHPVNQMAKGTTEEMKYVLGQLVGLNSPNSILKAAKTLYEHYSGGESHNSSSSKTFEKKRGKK
ASSAY READOUT: pKd
Entry type: numeric. Quantity: pKd, the -log10 of concentration in molar units.

Specify the recorded pKd for CS(=O)(=O)CCCOc1cccc2c1ccn2-c1ccnc(N[C@H]2CC[C@H](C(=O)N3CCC(O)CC3)CC2)n1 , system: Dual specificity protein kinase TTK (Homo sapiens, UniProt P33981). 5.72

---

# METHOD DESCRIPTION: AUC (0 to infinity) in Hanover-Wistar rat at 2 mg/kg, po
# Assay type: ADME, organism-based
# Parameters: time infinity, dose 2 mg/kg, route oral
# TEST CONTEXT: plasma
ASSAY READOUT: AUC(0-inf) (ng·h/mL)
Your answer should be a plain number; it is taken to be in ng·h/mL.

Read the entry CS(=O)(=O)CCCOc1cccc2c1ccn2-c1ccnc(N[C@H]2CC[C@H](C(=O)N3CCC(O)CC3)CC2)n1 and write its reported AUC(0-inf). 490

---

# EXPERIMENTAL SYSTEM: Mitogen-activated protein kinase 9 (Homo sapiens, UniProt P45984)
# Sequence (P45984 whole entry, looked up): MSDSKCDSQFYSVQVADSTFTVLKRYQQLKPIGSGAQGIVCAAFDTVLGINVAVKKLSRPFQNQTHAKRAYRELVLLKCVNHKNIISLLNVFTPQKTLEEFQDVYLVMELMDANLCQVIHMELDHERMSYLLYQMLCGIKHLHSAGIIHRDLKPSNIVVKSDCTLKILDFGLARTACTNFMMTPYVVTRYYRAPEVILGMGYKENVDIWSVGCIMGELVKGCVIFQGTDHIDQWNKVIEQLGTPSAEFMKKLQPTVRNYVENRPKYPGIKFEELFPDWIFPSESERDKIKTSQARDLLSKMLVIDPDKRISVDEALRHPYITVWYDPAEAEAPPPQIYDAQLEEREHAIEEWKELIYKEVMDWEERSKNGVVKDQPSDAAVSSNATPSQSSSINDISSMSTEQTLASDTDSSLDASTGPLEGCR
# METHOD DESCRIPTION: Ratio of IC50 for human JNK2 in presence of human serum to IC50 for human JNK2 in absence of human serum
ASSAY READOUT: Ratio IC50
// keep it numeric: no unit symbol after the value

Would you please look over these solved cases?
CS(=O)(=O)CCCOc1cccc2c1ccn2-c1ccnc(N[C@H]2CC[C@H](C(=O)N3CC[C@@H](O)C3)CC2)n1    2.6
CC(C)(O)[C@H]1CC[C@H](Nc2nccc(-n3ncc4c(OCCCS(C)(=O)=O)cccc43)n2)CC1    18
CCN(CC)C(=O)[C@H]1CC[C@H](Nc2nccc(-n3ccc4c(OCCCS(C)(=O)=O)cccc43)n2)CC1    4.6
CS(=O)(=O)CCOc1cccc2c1cnn2-c1ccnc(N[C@H]2CC[C@H](O)CC2)n1    4
CS(=O)(=O)NCCCOc1cccc2c1cnn2-c1ccnc(N[C@H]2CC[C@H](O)CC2)n1    17
CS(=O)(=O)CCCOc1cccc2c1ccn2-c1ccnc(N[C@H]2CC[C@H](C(=O)N3CC[C@@H](F)C3)CC2)n1    2.5
CS(=O)(=O)CCCOc1cccc2c1ccn2-c1ccnc(N[C@H]2CC[C@H](C(=O)N3CCC(F)(F)CC3)CC2)n1    4.2

Now consider the entry below.
Specify the recorded Ratio IC50 for COc1cccc2c1cnn2-c1ccnc(N[C@H]2CC[C@H](O)CC2)n1 , system: Mitogen-activated protein kinase 9 (Homo sapiens, UniProt P45984). 37

---

# EXPERIMENTAL SYSTEM: Serine/threonine-protein kinase 33 (Homo sapiens) (UniProt Q9BYT3)
# Sequence (Q9BYT3 whole entry, looked up): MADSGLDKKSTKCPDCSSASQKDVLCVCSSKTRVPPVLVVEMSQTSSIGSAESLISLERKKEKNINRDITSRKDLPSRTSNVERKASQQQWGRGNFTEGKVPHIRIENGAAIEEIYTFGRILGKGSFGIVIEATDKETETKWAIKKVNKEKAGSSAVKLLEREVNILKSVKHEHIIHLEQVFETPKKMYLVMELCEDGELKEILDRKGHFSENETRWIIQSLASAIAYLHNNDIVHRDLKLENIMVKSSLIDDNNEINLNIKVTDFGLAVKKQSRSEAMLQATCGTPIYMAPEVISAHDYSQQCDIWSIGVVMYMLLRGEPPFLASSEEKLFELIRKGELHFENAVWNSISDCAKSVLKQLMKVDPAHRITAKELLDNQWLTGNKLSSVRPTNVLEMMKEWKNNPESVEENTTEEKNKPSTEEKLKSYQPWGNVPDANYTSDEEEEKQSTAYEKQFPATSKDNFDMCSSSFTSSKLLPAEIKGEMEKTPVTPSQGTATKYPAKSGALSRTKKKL
# METHOD DESCRIPTION: Competitive binding affinity to STK33 (unknown origin) at 10 uM in presence of ATP relative to control
The following compounds are shown together with reported inhibition values.
Your answer should be a plain number; it is taken to be in %.

Would you please look over these solved cases?
O[C@H]1CC[C@H](Nc2nccc(-n3nnc4ccccc43)n2)CC1    75
O[C@H]1CC[C@H](Nc2nccc(-n3ncc4ccccc43)n2)CC1    78

Read the entry O[C@H]1CC[C@H](Nc2nccc(-c3n[nH]c4ccccc34)n2)CC1 and write its reported inhibition. 98

---

# EXPERIMENTAL SYSTEM: UniProt Q9UIK4
# Sequence (Q9UIK4 whole entry, looked up): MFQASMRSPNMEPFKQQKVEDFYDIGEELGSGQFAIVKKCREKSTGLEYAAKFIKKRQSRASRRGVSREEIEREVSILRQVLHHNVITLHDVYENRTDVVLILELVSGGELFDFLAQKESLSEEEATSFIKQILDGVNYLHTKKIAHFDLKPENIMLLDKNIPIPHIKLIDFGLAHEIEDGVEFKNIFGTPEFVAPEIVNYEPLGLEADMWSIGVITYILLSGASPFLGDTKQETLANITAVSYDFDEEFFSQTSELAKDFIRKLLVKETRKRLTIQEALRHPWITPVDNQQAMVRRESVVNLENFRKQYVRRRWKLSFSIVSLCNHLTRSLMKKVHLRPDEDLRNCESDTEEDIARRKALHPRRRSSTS
# METHOD DESCRIPTION: Competitive binding affinity to DAPK2 (unknown origin) at 10 uM in presence of ATP relative to control
ASSAY READOUT: inhibition (%)
Your answer should be a plain number; it is taken to be in %.

Would you please look over these solved cases?
O[C@H]1CC[C@H](Nc2nccc(-c3n[nH]c4ccccc34)n2)CC1    94
N[C@H]1CC[C@H](Nc2nccc(-n3nnc4ccccc43)n2)CC1    94

Now consider the entry below.
Read the entry O[C@H]1CC[C@H](Nc2nccc(-n3nnc4ccccc43)n2)CC1 and write its reported inhibition. 96

---

The following molecules are shown together with reported inhibition values.
# EXPERIMENTAL SYSTEM: Ephrin type-B receptor 4 (Homo sapiens) (UniProt P54760)
# Sequence (P54760 whole entry): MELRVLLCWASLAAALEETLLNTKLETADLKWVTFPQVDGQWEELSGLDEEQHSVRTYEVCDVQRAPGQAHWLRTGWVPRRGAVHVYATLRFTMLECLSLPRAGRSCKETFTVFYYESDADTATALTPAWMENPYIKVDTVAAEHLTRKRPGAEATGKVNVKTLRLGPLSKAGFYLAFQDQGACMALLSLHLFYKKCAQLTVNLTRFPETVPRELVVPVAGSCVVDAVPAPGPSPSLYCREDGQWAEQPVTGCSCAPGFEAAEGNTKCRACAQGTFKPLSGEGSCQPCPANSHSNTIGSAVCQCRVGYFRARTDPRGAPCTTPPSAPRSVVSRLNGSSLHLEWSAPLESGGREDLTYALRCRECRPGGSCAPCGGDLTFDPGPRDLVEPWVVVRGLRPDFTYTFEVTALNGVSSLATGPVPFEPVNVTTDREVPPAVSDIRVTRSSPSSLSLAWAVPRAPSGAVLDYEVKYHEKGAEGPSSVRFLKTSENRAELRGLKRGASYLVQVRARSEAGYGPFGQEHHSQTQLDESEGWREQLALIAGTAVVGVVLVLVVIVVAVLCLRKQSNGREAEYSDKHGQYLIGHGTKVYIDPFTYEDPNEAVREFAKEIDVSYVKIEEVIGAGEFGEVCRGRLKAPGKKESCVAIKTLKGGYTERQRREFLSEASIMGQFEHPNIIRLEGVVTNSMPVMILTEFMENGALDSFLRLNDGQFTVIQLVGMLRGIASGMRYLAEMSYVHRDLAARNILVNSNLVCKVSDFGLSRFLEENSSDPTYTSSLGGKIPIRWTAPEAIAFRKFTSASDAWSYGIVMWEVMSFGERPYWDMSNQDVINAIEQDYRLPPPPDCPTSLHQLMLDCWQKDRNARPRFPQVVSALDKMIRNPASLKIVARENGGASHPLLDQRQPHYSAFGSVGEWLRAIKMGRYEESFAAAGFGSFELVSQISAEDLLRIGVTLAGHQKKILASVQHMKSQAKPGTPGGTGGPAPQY
# METHOD DESCRIPTION: Competitive binding affinity to EPHB4 (unknown origin) at 10 uM in presence of ATP relative to control

Would you please look over these solved cases?
O[C@H]1CC[C@H](Nc2nccc(-c3n[nH]c4ccccc34)n2)CC1    100%
N[C@H]1CC[C@H](Nc2nccc(-n3nnc4ccccc43)n2)CC1    < 50%
O=C([C@H]1CC[C@H](Nc2nccc(-n3nnc4ccccc43)n2)CC1)N1CCOCC1    < 50%
O[C@H]1CC[C@H](Nc2nccc(-n3ncc4ccccc43)n2)CC1    < 50%
O[C@H]1CC[C@H](Nc2nccc(-n3nnc4ccccc43)n2)CC1    < 50%

Now consider the entry below.
Read the entry O[C@H]1CC[C@H](Nc2nccc(-n3ccc4ccccc43)n2)CC1 and write its reported inhibition. < 50%

---

# EXPERIMENTAL SYSTEM: Serine/threonine-protein kinase NLK (Homo sapiens) (UniProt Q9UBE8)
# Sequence (whole entry): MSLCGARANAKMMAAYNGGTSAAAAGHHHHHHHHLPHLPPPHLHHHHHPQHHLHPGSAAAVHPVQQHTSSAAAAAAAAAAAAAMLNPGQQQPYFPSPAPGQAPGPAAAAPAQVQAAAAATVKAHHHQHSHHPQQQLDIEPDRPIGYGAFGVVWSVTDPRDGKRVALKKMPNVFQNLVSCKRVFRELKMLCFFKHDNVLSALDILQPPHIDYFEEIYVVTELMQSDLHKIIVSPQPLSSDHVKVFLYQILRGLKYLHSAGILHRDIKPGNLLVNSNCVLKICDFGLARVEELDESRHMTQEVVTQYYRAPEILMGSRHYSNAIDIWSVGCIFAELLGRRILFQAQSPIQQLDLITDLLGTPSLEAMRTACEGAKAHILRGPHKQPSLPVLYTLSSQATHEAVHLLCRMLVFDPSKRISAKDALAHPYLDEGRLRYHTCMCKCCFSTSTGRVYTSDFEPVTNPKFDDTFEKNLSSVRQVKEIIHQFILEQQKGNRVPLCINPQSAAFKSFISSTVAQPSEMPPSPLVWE
# METHOD DESCRIPTION: Competitive binding affinity to NLK (unknown origin) at 10 uM in presence of ATP relative to control
The following compounds are shown together with reported inhibition values.

O[C@H]1CC[C@H](Nc2nccc(-n3nnc4ccccc43)n2)CC1    < 50%
O[C@H]1CC[C@H](Nc2nccc(-c3n[nH]c4ccccc34)n2)CC1    90%
O[C@H]1CC[C@H](Nc2nccc(-n3ncc4ccccc43)n2)CC1    < 50%

Read the entry O[C@H]1CC[C@H](Nc2nccc(-n3ccc4ccccc43)n2)CC1 and write its reported inhibition. < 50%

---

# EXPERIMENTAL SYSTEM: Interferon-induced, double-stranded RNA-activated protein kinase (Homo sapiens)
# Sequence (P19525 whole entry): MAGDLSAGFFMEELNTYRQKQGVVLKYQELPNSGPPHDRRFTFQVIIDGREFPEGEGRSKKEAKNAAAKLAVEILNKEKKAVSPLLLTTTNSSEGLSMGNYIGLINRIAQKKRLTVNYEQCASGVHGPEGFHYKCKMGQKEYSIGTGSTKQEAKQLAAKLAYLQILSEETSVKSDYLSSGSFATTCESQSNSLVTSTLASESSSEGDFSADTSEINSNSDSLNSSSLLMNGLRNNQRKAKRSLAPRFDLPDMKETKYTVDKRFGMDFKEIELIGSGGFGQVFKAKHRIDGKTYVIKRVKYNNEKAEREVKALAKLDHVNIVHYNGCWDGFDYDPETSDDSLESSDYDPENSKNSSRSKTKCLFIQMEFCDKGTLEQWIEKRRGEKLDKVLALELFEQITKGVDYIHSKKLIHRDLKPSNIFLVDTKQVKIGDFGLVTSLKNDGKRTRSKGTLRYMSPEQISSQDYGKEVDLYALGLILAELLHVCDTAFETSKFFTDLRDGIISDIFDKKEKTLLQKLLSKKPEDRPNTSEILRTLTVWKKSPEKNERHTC
# METHOD DESCRIPTION: Binding affinity to PRKR (unknown origin)
ASSAY READOUT: pKd
Entry type: numeric. Quantity: pKd, the -log10 of concentration in molar units.

Read the entry CS(=O)(=O)CCCOc1cccc2c1ccn2-c1ccnc(N[C@H]2CC[C@H](C(=O)N3CCC(O)CC3)CC2)n1 and write its reported pKd. 6.92

---

# EXPERIMENTAL SYSTEM: Serine/threonine-protein kinase Nek1 (Homo sapiens) (UniProt Q96PY6)
# Sequence (Q96PY6 whole entry): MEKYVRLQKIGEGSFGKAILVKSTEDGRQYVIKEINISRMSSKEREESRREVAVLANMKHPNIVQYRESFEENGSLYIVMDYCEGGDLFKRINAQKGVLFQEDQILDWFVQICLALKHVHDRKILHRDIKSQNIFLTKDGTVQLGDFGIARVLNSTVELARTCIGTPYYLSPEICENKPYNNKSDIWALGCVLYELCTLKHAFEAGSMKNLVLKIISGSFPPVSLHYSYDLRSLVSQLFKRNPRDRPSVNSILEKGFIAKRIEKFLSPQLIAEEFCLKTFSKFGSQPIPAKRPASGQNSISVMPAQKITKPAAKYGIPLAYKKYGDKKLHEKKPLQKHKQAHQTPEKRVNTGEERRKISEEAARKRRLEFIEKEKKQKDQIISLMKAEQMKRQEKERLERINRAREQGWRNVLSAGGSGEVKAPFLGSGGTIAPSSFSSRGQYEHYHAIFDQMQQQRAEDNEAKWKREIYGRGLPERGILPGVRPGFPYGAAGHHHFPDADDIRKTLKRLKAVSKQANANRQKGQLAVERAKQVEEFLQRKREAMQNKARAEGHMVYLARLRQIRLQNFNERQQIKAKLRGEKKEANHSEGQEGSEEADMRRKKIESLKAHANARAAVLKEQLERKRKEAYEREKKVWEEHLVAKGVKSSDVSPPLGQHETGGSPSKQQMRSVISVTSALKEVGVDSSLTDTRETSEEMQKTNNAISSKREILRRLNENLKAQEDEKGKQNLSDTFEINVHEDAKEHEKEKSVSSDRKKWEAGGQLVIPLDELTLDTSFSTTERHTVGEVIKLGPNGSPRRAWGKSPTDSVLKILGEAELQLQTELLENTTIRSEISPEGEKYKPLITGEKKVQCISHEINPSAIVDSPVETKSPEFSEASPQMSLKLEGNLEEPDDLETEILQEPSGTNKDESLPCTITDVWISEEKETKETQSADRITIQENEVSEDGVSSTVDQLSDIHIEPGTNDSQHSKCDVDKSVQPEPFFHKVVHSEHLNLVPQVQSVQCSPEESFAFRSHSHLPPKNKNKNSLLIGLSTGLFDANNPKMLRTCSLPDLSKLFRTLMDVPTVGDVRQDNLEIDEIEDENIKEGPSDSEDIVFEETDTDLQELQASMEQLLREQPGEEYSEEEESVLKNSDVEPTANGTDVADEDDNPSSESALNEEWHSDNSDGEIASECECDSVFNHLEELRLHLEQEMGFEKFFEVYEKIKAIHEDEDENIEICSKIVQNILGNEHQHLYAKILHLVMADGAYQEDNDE
# METHOD DESCRIPTION: Competitive binding affinity to NEK1 (unknown origin) at 10 uM in presence of ATP relative to control
ASSAY READOUT: inhibition (%)
Your answer should be a plain number; it is taken to be in %.

Would you please look over these solved cases?
O[C@H]1CC[C@H](Nc2nccc(-n3nnc4ccccc43)n2)CC1    98
O[C@H]1CC[C@H](Nc2nccc(-n3ccc4ccccc43)n2)CC1    84

Read the entry O[C@H]1CC[C@H](Nc2nccc(-n3ncc4ccccc43)n2)CC1 and write its reported inhibition. 96

---

# EXPERIMENTAL SYSTEM: Cyclin-G-associated kinase (Homo sapiens)
# METHOD DESCRIPTION: Competitive binding affinity to GAK (unknown origin) at 10 uM in presence of ATP relative to control
The following compounds are shown together with reported inhibition values.
Your answer should be a plain number; it is taken to be in %.

O[C@H]1CC[C@H](Nc2nccc(-n3nnc4ccccc43)n2)CC1    100
O=C([C@H]1CC[C@H](Nc2nccc(-n3nnc4ccccc43)n2)CC1)N1CCOCC1    100
O[C@H]1CC[C@H](Nc2nccc(-n3ccc4ccccc43)n2)CC1    91
O[C@H]1CC[C@H](Nc2nccc(-c3n[nH]c4ccccc34)n2)CC1    100

Read the entry N[C@H]1CC[C@H](Nc2nccc(-n3nnc4ccccc43)n2)CC1 and write its reported inhibition. 91

Read the entry O[C@H]1CC[C@H](Nc2nccc(-n3ncc4ccccc43)n2)CC1 and write its reported inhibition. 100
